test system: 292921-168-R-J2-PDC complex spheroid growth; experiment: Anticancer human tumor 292921-168-R-J2-PDC patient-derived pancreatic carcinoma cell line growth inhibition [AhR]; conditions: curve of first compound; second compound 0.1 µM
Field: IC50. Provide a value for each of the compounds that follow.
Numbers only, in µM.

# example entries with known answers
>>> reported_measurement("CC1COCCN1c1cc(C2(S(C)(=N)=O)CC2)nc(-c2ccnc3[nH]ccc23)n1 (centres undefined) + CC(CO)NC(=O)c1cc(-c2ccc(Cl)cc2)nn(-c2cnn(C)c2)c1=O")
3.2
>>> reported_measurement("CC1COCCN1c1cc(C2(S(C)(=N)=O)CC2)nc(-c2ccnc3[nH]ccc23)n1 (centres undefined) + Cc1cncc(-c2nc(NCCc3c[nH]c4ccccc34)c3ncn(C(C)C)c3n2)c1")
3.61

Exam item: I would be grateful if you could share the reported IC50 for COc1ccc([C@@H](O)c2cc(-c3ncnc4cc(N5CCOCC5)ccc34)c(F)cc2Cl)nn1 + Cc1ccccc1N=Nc1ccc(NC(=O)c2ccnn2C)c(C)c1 .
Marked response: 1.95

###

tested on: 292921-168-R-J2-PDC complex spheroid growth; experiment: Anticancer human tumor 292921-168-R-J2-PDC cell line growth inhibition [AhR]; conditions: second compound 3.16 µM; first compound 0.949 µM; stronger effect = lower value;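 note: spheroids exposed to compounds for seven days after three days of growth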
Exercise: state measured viability, T/C for each of the compounds provided.
Give bare numbers, in %.

Worked examples, 5 compounds total:
>>> reported_measurement("O=C(C=Cn1cnc(-c2cc(C(F)(F)F)cc(C(F)(F)F)c2)n1)NNc1cnccn1 + CC(CO)NC(=O)c1cc(-c2ccc(Cl)cc2)nn(-c2cnn(C)c2)c1=O")
17.7
>>> reported_measurement("CCN(c1cc(-c2ccc(CN3CCOCC3)cc2)cc(C(=O)NCc2c(C)cc(C)[nH]c2=O)c1C)C1CCOCC1 + Cc1ccccc1N=Nc1ccc(NC(=O)c2ccnn2C)c(C)c1")
67.3
>>> reported_measurement("CCN(c1cc(-c2ccc(CN3CCOCC3)cc2)cc(C(=O)NCc2c(C)cc(C)[nH]c2=O)c1C)C1CCOCC1 + CC(CO)NC(=O)c1cc(-c2ccc(Cl)cc2)nn(-c2cnn(C)c2)c1=O")
81
>>> reported_measurement("CCN(c1cc(-c2ccc(CN3CCOCC3)cc2)cc(C(=O)NCc2c(C)cc(C)[nH]c2=O)c1C)C1CCOCC1 + Cc1cncc(-c2nc(NCCc3c[nH]c4ccccc34)c3ncn(C(C)C)c3n2)c1")
62.8
>>> reported_measurement("O=C(C=Cn1cnc(-c2cc(C(F)(F)F)cc(C(F)(F)F)c2)n1)NNc1cnccn1 + Cc1cncc(-c2nc(NCCc3c[nH]c4ccccc34)c3ncn(C(C)C)c3n2)c1")
21.9

Exam item: I am curious: what viability, T/C value has been reported for O=C(C=Cn1cnc(-c2cc(C(F)(F)F)cc(C(F)(F)F)c2)n1)NNc1cnccn1 + Cc1ccccc1N=Nc1ccc(NC(=O)c2ccnn2C)c(C)c1 ?
Marked response: 15.2

###

tested on: 292921-168-R-J2-PDC complex spheroid growth; assay: Anticancer human tumor 292921-168-R-J2-PDC cell line growth inhibition [AhR]; details: second compound 3.16 µM; first compound 3.16 µM; stronger effect = lower value;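 note: spheroids exposed to compounds for seven days after three days of growth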
MEASURE: viability, T/C (%)
One number for each entry, in %.

Use these answered entries as a reference point.
>>> reported_measurement("O=C(C=Cc1cccc(S(=O)(=O)Nc2ccccc2)c1)NO + Cc1ccccc1N=Nc1ccc(NC(=O)c2ccnn2C)c(C)c1")
35.2
>>> reported_measurement("NS(=O)(=O)OCC1CC(n2ccc3c(NC4CCc5ccccc54)ncnc32)CC1O (configuration not stated) + Cc1ccccc1N=Nc1ccc(NC(=O)c2ccnn2C)c(C)c1")
8.31
>>> reported_measurement("CC1(C)CCC(CN2CCN(c3ccc(C(=O)NS(=O)(=O)c4ccc(NCC5CCOCC5)c([N+](=O)[O-])c4)c(Oc4cnc5[nH]ccc5c4)c3)CC2)=C(c2ccc(Cl)cc2)C1 + CC(CO)NC(=O)c1cc(-c2ccc(Cl)cc2)nn(-c2cnn(C)c2)c1=O")
83.8
>>> reported_measurement("COc1ccc([C@@H](O)c2cc(-c3ncnc4cc(N5CCOCC5)ccc34)c(F)cc2Cl)nn1 + Cc1cncc(-c2nc(NCCc3c[nH]c4ccccc34)c3ncn(C(C)C)c3n2)c1")
32.7
>>> reported_measurement("COc1cccc2c1C(=O)c1c(O)c3c(c(O)c1C2=O)CC(O)(C(=O)CO)CC3OC1CC(N)C(O)C(C)O1 (configuration not stated) + Cc1ccccc1N=Nc1ccc(NC(=O)c2ccnn2C)c(C)c1")
0.73

For each of the compounds below, note its viability, T/C.
1. CC(C)c1c(-c2ccccc2)nc2c(C#N)c[nH]n2c1=O + CC(CO)NC(=O)c1cc(-c2ccc(Cl)cc2)nn(-c2cnn(C)c2)c1=O
2. COc1ccc([C@@H](O)c2cc(-c3ncnc4cc(N5CCOCC5)ccc34)c(F)cc2Cl)nn1 + Cc1ccccc1N=Nc1ccc(NC(=O)c2ccnn2C)c(C)c1
3. CC1COCCN1c1cc(C2(S(C)(=N)=O)CC2)nc(-c2ccnc3[nH]ccc23)n1 (configuration not stated) + CC(CO)NC(=O)c1cc(-c2ccc(Cl)cc2)nn(-c2cnn(C)c2)c1=O
4. Nc1ccccc1NC(=O)c1ccc(CNC(=O)OCc2cccnc2)cc1 + Cc1cncc(-c2nc(NCCc3c[nH]c4ccccc34)c3ncn(C(C)C)c3n2)c1
5. CC(C)c1c(-c2ccccc2)nc2c(C#N)c[nH]n2c1=O + Cc1cncc(-c2nc(NCCc3c[nH]c4ccccc34)c3ncn(C(C)C)c3n2)c1
6. O=C(c1cc(Cc2n[nH]c(=O)c3ccccc23)ccc1F)N1CCN(C(=O)C2CC2)CC1 + Cc1cncc(-c2nc(NCCc3c[nH]c4ccccc34)c3ncn(C(C)C)c3n2)c1
7. CC1COCCN1c1cc(C2(S(C)(=N)=O)CC2)nc(-c2ccnc3[nH]ccc23)n1 (configuration not stated) + Cc1ccccc1N=Nc1ccc(NC(=O)c2ccnn2C)c(C)c1

Marked response:
1. 80.8
2. 38.5
3. 47.7
4. 17.2
5. 65.3
6. 68.6
7. 37.4

###

tested on: 292921-168-R-J2-PDC complex spheroid growth; test: Anticancer human tumor 292921-168-R-J2-PDC cell line growth inhibition [AhR]; settings: second compound 10 µM; first compound 0.0316 µM; stronger effect = lower value;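 note: spheroids exposed to compounds for seven days after three days of growth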
Mark Criterion met only when viability, T/C stays strictly below 40%. Values equal to the cut-off are Criterion not met.

The following compounds have reported results that may help.
>>> label("COc1cccc2c1C(=O)c1c(O)c3c(c(O)c1C2=O)CC(O)(C(=O)CO)CC3OC1CC(N)C(O)C(C)O1 (stereo unspecified) + CC(CO)NC(=O)c1cc(-c2ccc(Cl)cc2)nn(-c2cnn(C)c2)c1=O")
"Criterion met"
>>> label("NS(=O)(=O)OCC1CC(n2ccc3c(NC4CCc5ccccc54)ncnc32)CC1O (stereo unspecified) + CC(CO)NC(=O)c1cc(-c2ccc(Cl)cc2)nn(-c2cnn(C)c2)c1=O")
"Criterion not met"
>>> label("Nc1ccccc1NC(=O)c1ccc(CNC(=O)OCc2cccnc2)cc1 + Cc1ccccc1N=Nc1ccc(NC(=O)c2ccnn2C)c(C)c1")
"Criterion not met"
>>> label("COc1cc(C2c3cc4c(cc3C(OC3OC5COC(C)OC5C(O)C3O)C3COC(=O)C23)OCO4)cc(OC)c1O (stereo unspecified) + Cc1ccccc1N=Nc1ccc(NC(=O)c2ccnn2C)c(C)c1")
"Criterion not met"

Shift focus to the following entry.
Exam item: Is the reported viability, T/C for CC1COCCN1c1cc(-c2ccnn2C)c2ccnc(-c3ccn[nH]3)c2n1 (stereo unspecified) + Cc1cncc(-c2nc(NCCc3c[nH]c4ccccc34)c3ncn(C(C)C)c3n2)c1 strictly below 40%?
Marked response: Criterion not met

###

tested on: 292921-168-R-J2-PDC complex spheroid growth; experiment: Anticancer human tumor 292921-168-R-J2-PDC cell line growth inhibition [AhR]; settings: curve of first compound; second compound 0.1 µM;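 note: spheroids exposed to compounds for seven days after three days of growth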
Give measured IC50 for each item. Keep answers brief.
One number for each entry, in nM.

>>> reported_measurement("COc1cc(C2c3cc4c(cc3C(OC3OC5COC(C)OC5C(O)C3O)C3COC(=O)C23)OCO4)cc(OC)c1O (stereo unspecified) + Cc1cncc(-c2nc(NCCc3c[nH]c4ccccc34)c3ncn(C(C)C)c3n2)c1")
565
>>> reported_measurement("CC[C@@]1(O)C(=O)OCc2c1cc1n(c2=O)Cc2cc3c(CN(C)C)c(O)ccc3nc2-1 + CC(CO)NC(=O)c1cc(-c2ccc(Cl)cc2)nn(-c2cnn(C)c2)c1=O")
29.2

Exam item: Lab note: need IC50 with 292921-168-R-J2-PDC complex spheroid growth for entry CCc1c2c(nc3ccc(O)cc13)-c1cc3c(c(=O)n1C2)COC(=O)[C@]3(O)CC + Cc1ccccc1N=Nc1ccc(NC(=O)c2ccnn2C)c(C)c1 , please look it up.
Marked response: 3.86
